ASSAY_OVERVIEW: Single dose PK in healthy subjects (Cohorts 1, 2, S1 and S2), plasma
Type: in vivo, human
EXPERIMENTAL_PARAMETERS: human, plasma, intravenous, 56 mg; 9 hr; read-out: Plasma concentration, Q3
READOUT_NAME: concentration at 9 h (ng/mL)
All answers are understood in ng/mL, so give the number only.

Query: Record request: concentration at 9 h value, item `COC(=O)N1CCC[C@H](NS(C)(=O)=O)[C@@H]1CO[C@H]1CC[C@@H](c2ccccc2)CC1`
Response: 122

---

ASSAY_OVERVIEW: Single dose PK in healthy subjects (Cohorts 1, 2, S1 and S2), plasma
Format: in vivo, human
EXPERIMENTAL_PARAMETERS: human, plasma, intravenous, 14 mg; 6 hr; read-out: Plasma concentration, Median
READOUT_NAME: concentration at 6 h

Query: // lookup concentration at 6 h for COC(=O)N1CCC[C@H](NS(C)(=O)=O)[C@@H]1CO[C@H]1CC[C@@H](c2ccccc2)CC1 [Compound A]
Response: 29.7 ng/mL
